RESULT TYPE: Ki

Record O=C(NN1CCCCC1)C1=NN(c2ccc(Cl)cc2Cl)C(c2ccc(Cl)cc2)C1 (stereo not shown) / UniProt P21554, Ki recorded as < 25 nM

----------
pKi: −log10 of the molar value.
Please go through the items and note down their pKi.

Record O=C(NN1CCCCC1)C1=NN(c2ccc(Cl)cc2Cl)C(c2ccc(Cl)cc2)C1 (centres unmarked) / CB2-Receptor (Homo sapiens, UniProt P34972), pKi recorded as < 6.00

Record O=C(C1=NN(c2ccc(Cl)cc2Cl)C(c2ccc(Cl)cc2)C1)N1CCCCC1 (centres unmarked) / CB2-Receptor (Homo sapiens, UniProt P34972), pKi recorded as ~6.00
